Assay: Inhibition of bovine liver beta-glucosidase using p-nitrophenyl-glycoside as substrate by spectrophotometric method
Set-up: species or system Bos taurus
Property Name: IC50 (µM)

In the examples that follow, each entry is paired with its recorded IC50.
CCCCCCCC/N=C1/SC[C@@H]2[C@@H](O)[C@H](O)[C@@H](CO)N12 :: 63
CCCCCCCCCCCCNC(=S)N1[C@H](CO)[C@@H](O)[C@H](O)[C@H]1CO :: 23
CCCCCCCCCCCC/N=C1/SC[C@@H]2[C@@H](O)[C@H](O)[C@@H](CO)N12 :: 63

(I) CCCCCCCCCCNC(=S)N1[C@@H](CO)[C@H](O)[C@@H](O)[C@@H]1CO
(II) OC[C@H]1N[C@H](CO)[C@@H](O)[C@@H]1O
Ask | I or II : whose IC50 is greater? Answer = label.
Reply | I

(A) CCCCCCCCCCCCNC(=S)N1[C@@H](CO)[C@H](O)[C@@H](O)[C@@H]1CO
(B) CCCCNC(=S)N1[C@@H](CO)[C@H](O)[C@@H](O)[C@@H]1CO
Ask | A or B : whose IC50 is greater? Answer = label.
Reply | B
(B: 939 µM, A: 36 µM)

(a) OC[C@H]1[C@H](O)[C@@H](O)[C@@H]2CS/C(=N/CCCCCCCCCc3ccccc3)N12
(b) CCCCCCCCCCCC/N=C1/SC[C@H]2[C@H](O)[C@@H](O)[C@H](CO)N12
Ask | a or b : whose IC50 is greater? Answer = label.
Reply | a
